# test.summary: Parallel artificial membrane permeability assay (PAMPA)
# Format: in vitro ADME
Mark satisfied for PAMPA under 2 ×10⁻⁶ cm/s, not satisfied if at or over.

smiles_entry=Cc1cn2c(-c3ccnc(Nc4ccc(N5CCNCC5)cc4)n3)c(-c3ccc(F)cc3)nc2cc1CN(C)C assigned_label="not satisfied"
smiles_entry=CN(C)Cc1ccn2c(-c3ccnc(NCC4CC4)n3)c(-c3cccc(S(C)(=O)=O)c3)nc2c1 assigned_label="not satisfied"
smiles_entry=CN(C)Cc1ccn2c(-c3ccnc(Nc4ccc(N5CCNCC5)cc4)n3)c(-c3ccc(F)cc3)nc2c1 assigned_label="not satisfied"
smiles_entry=Cc1cn2c(-c3ccnc(N)n3)c(-c3ccc(F)c(NS(C)(=O)=O)c3)nc2cc1CN(C)C assigned_label=satisfied
smiles_entry=CN(C)Cc1ccn2c(-c3ccnc(N)n3)c(-c3cccc(NS(C)(=O)=O)c3)nc2c1 assigned_label=satisfied
smiles_entry=CN(C)Cc1ccn2c(-c3ccnc(N)n3)c(-c3cccc(S(C)(=O)=O)c3)nc2c1 assigned_label=satisfied
smiles_entry=Fc1ccc(-c2nc3ccccn3c2-c2ccnc(Nc3ccc(N4CCNCC4)cc3)n2)cc1 assigned_label=satisfied
smiles_entry=CN(C)Cc1ccn2c(-c3ccnc(N)n3)c(-c3ccc(F)c(NS(C)(=O)=O)c3)nc2c1 assigned_label=satisfied

###

Reported IC50 values for the following compounds.
# test.summary: Cytotoxicity assay using HepG2 cells
# measurement.parameters: human
observable: IC50

compound="CN(C)Cc1ccn2c(-c3ccnc(N)n3)c(-c3ccc(F)cc3)nc2c1 [ML1, reference compound]" experimental_value="> 20 µM"
compound=Cc1cn2c(-c3ccnc(NCC4CC4)n3)c(-c3ccc(F)c(NS(C)(=O)=O)c3)nc2cc1CN(C)C experimental_value="> 20 µM"

###

# Tested on: P. falciparum 3D7
# test.summary: Hypoxanthine incorporation growth inhibition assay, asexual blood stage, wild-type 3D7
# Format: cell-based, Plasmodium falciparum
# measurement.parameters: 3D7 asexual blood stage growth, 72 h; +/- s.e.m.; read-out: EC50 WT
Reported EC50 values for the following molecules.
observable: EC50

smiles_entry=Cc1cn2c(-c3ccnc(Nc4ccc(N5CCNCC5)cc4)n3)c(-c3ccc(F)cc3)nc2cc1CN(C)C experimental_value="25.3 nM"
smiles_entry=CN(C)Cc1ccn2c(-c3ccnc(N)n3)c(-c3ccc(F)c(NS(C)(=O)=O)c3)nc2c1 experimental_value="148 nM"
smiles_entry=CN(C)Cc1ccn2c(-c3ccnc(NCC4CC4)n3)c(-c3cccc(S(C)(=O)=O)c3)nc2c1 experimental_value="102 nM"
smiles_entry=CN(C)Cc1ccn2c(-c3ccnc(Nc4ccc(N5CCNCC5)cc4)n3)c(-c3ccc(F)cc3)nc2c1 experimental_value="63.4 nM"
smiles_entry=CN(C)Cc1ccn2c(-c3ccnc(N)n3)c(-c3cccc(NS(C)(=O)=O)c3)nc2c1 experimental_value="489 nM"
smiles_entry=CN(C)Cc1ccn2c(-c3ccnc(N)n3)c(-c3cccc(S(C)(=O)=O)c3)nc2c1 experimental_value="329 nM"
smiles_entry=Fc1ccc(-c2nc3ccccn3c2-c2ccnc(Nc3ccc(N4CCNCC4)cc3)n2)cc1 experimental_value="197 nM"
smiles_entry=Cc1cn2c(-c3ccnc(NCC4CC4)n3)c(-c3ccc(F)c(NS(C)(=O)=O)c3)nc2cc1CN(C)C experimental_value="2.1 nM"
smiles_entry=Cc1cn2c(-c3ccnc(N)n3)c(-c3ccc(F)c(NS(C)(=O)=O)c3)nc2cc1CN(C)C experimental_value="105 nM"

###

# test.summary: in vivo
# measurement.parameters: BALB/c, mouse, po, 50 mg/kg
observable: concentration at 4 h

smiles_entry=Cc1cn2c(-c3ccnc(NCC4CC4)n3)c(-c3ccc(F)c(NS(C)(=O)=O)c3)nc2cc1CN(C)C experimental_value="< 84 nM"

###

# test.summary: Stability in mouse liver microsomes
# measurement.parameters: mouse, microsomes, 0.5 h
Reported mlm (%rem) values for the following compounds.
observable: mlm (%rem) (%)

compound="CN(C)Cc1ccn2c(-c3ccnc(N)n3)c(-c3ccc(F)c(NS(C)(=O)=O)c3)nc2c1 [ML8]" experimental_value=97
compound="Cc1cn2c(-c3ccnc(Nc4ccc(N5CCNCC5)cc4)n3)c(-c3ccc(F)cc3)nc2cc1CN(C)C [ML4]" experimental_value=84
compound="Fc1ccc(-c2nc3ccccn3c2-c2ccnc(Nc3ccc(N4CCNCC4)cc3)n2)cc1 [ML2]" experimental_value=100
compound="CN(C)Cc1ccn2c(-c3ccnc(N)n3)c(-c3cccc(S(C)(=O)=O)c3)nc2c1 [ML5]" experimental_value=96

###

# test.summary: in vivo
# measurement.parameters: BALB/c, mouse, po, 25 mg/kg
observable: half-life

smiles_entry=Cc1cn2c(-c3ccnc(NCC4CC4)n3)c(-c3ccc(F)c(NS(C)(=O)=O)c3)nc2cc1CN(C)C observable=half-life experimental_value="48 min"

###

# test.summary: Cytotoxicity assay (ATP depletion), HT-29
# Format: cell-based
# measurement.parameters: human, HT-29 colorectal adenocarcinoma cells, 0.001–10 µM, n = 6
observable: EC50 at 48 h

smiles_entry=Cc1cn2c(-c3ccnc(NCC4CC4)n3)c(-c3ccc(F)c(NS(C)(=O)=O)c3)nc2cc1CN(C)C experimental_value="> 10 µM"

###

# test.summary: Cytotoxicity assay (ATP depletion), A549
# Format: cell-based
# measurement.parameters: human, A549 lung carcinoma cells, 0.001–10 µM, n = 6
observable: EC50 at 48 h

smiles_entry=Cc1cn2c(-c3ccnc(NCC4CC4)n3)c(-c3ccc(F)c(NS(C)(=O)=O)c3)nc2cc1CN(C)C observable="EC50 at 48 h" experimental_value="> 10 µM"

###

# test.summary: in vivo
# measurement.parameters: NOD-scid IL-2Rγc-null, mouse, po, 100 mg/kg
observable: half-life (h)

smiles_entry=Cc1cn2c(-c3ccnc(NCC4CC4)n3)c(-c3ccc(F)c(NS(C)(=O)=O)c3)nc2cc1CN(C)C observable=half-life experimental_value=17

###

# test.summary: in vivo
# measurement.parameters: BALB/c, mouse, po, 50 mg/kg
observable: concentration at 30 min (µM)

smiles_entry=Cc1cn2c(-c3ccnc(NCC4CC4)n3)c(-c3ccc(F)c(NS(C)(=O)=O)c3)nc2cc1CN(C)C experimental_value=10.4

###

Reported IC50 values for the following compounds.
# test.system: PfPKG (Plasmodium falciparum, UniProt Q8I719)
# Sequence (Q8I719 whole entry): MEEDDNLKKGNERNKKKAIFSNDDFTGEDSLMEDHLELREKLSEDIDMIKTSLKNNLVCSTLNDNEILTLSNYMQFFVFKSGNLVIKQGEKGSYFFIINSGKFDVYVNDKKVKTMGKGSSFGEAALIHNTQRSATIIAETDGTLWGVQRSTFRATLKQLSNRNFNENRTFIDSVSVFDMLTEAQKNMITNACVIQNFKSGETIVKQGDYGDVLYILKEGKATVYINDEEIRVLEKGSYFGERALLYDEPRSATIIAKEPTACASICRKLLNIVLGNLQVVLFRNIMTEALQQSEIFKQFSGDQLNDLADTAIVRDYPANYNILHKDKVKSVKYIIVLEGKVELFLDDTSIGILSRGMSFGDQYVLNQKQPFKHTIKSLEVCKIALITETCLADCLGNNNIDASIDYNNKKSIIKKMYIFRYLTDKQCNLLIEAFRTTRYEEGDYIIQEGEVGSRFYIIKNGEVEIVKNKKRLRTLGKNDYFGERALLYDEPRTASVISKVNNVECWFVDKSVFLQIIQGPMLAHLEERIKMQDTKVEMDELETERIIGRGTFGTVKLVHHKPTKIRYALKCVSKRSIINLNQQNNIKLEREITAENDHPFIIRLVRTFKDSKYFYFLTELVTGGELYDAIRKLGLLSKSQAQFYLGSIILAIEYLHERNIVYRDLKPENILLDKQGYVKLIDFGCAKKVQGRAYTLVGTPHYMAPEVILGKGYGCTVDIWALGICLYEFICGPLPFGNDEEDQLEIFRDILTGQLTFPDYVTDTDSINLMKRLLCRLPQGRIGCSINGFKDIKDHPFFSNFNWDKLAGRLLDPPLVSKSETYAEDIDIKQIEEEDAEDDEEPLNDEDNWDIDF
# test.summary: Microfluidic mobility shift kinase assay, recombinant PfPKG wild type
# measurement.parameters: read-out: IC50 WT; recombinant full length 6His-tagged PfPKG; ATP at KM (20 µM); +/- s.e.m.
observable: IC50 (nM)

compound="CN(C)Cc1ccn2c(-c3ccnc(N)n3)c(-c3cccc(S(C)(=O)=O)c3)nc2c1 [ML5]" unit_symbol=nM experimental_value=0.88
compound="CN(C)Cc1ccn2c(-c3ccnc(N)n3)c(-c3ccc(F)c(NS(C)(=O)=O)c3)nc2c1 [ML8]" unit_symbol=nM experimental_value=0.79
compound="Cc1cn2c(-c3ccnc(N)n3)c(-c3ccc(F)c(NS(C)(=O)=O)c3)nc2cc1CN(C)C [ML9]" unit_symbol=nM experimental_value=1.19
compound="CN(C)Cc1ccn2c(-c3ccnc(NCC4CC4)n3)c(-c3cccc(S(C)(=O)=O)c3)nc2c1 [ML6]" unit_symbol=nM experimental_value=0.13
compound="CN(C)Cc1ccn2c(-c3ccnc(N)n3)c(-c3cccc(NS(C)(=O)=O)c3)nc2c1 [ML7]" unit_symbol=nM experimental_value=4.34
compound="Cc1cn2c(-c3ccnc(Nc4ccc(N5CCNCC5)cc4)n3)c(-c3ccc(F)cc3)nc2cc1CN(C)C [ML4]" unit_symbol=nM experimental_value=0.45
compound="CN(C)Cc1ccn2c(-c3ccnc(Nc4ccc(N5CCNCC5)cc4)n3)c(-c3ccc(F)cc3)nc2c1 [ML3]" unit_symbol=nM experimental_value=0.79
compound="Fc1ccc(-c2nc3ccccn3c2-c2ccnc(Nc3ccc(N4CCNCC4)cc3)n2)cc1 [ML2]" unit_symbol=nM experimental_value=1.71

###

# test.summary: Stability in human liver microsomes
# measurement.parameters: human, microsomes, 40 min
# Experimental: Compound mlm hlm mLogD PAMPA HepG2 name (%rem) (%rem) (nm/s) (IC50 µM) Supplementary Table 2. Compound Properties. MLM, HLM, mLogD and PAMPA . mlm (%rem): % of compound remaining after 30 minutes’ incubation with mouse liver microsomes; hlm (%rem): % of compound remaining after 40 minutes’ incubation with human liver microsomes; mLogD: measured LogD at pH 7.4; PAMPA: parallel artificial membrane permeability assay; HepG2: Cytotoxicity assay using HepG2 cells; n.t.: not tested.
observable: hlm (%rem)

molecule="Cc1cn2c(-c3ccnc(N)n3)c(-c3ccc(F)c(NS(C)(=O)=O)c3)nc2cc1CN(C)C [ML9]" experimental_value=86%
molecule="CN(C)Cc1ccn2c(-c3ccnc(NCC4CC4)n3)c(-c3cccc(S(C)(=O)=O)c3)nc2c1 [ML6]" experimental_value=72%
molecule="Cc1cn2c(-c3ccnc(NCC4CC4)n3)c(-c3ccc(F)c(NS(C)(=O)=O)c3)nc2cc1CN(C)C [ML10]" experimental_value=61%
molecule="Cc1cn2c(-c3ccnc(Nc4ccc(N5CCNCC5)cc4)n3)c(-c3ccc(F)cc3)nc2cc1CN(C)C [ML4]" experimental_value=31%
